substrate: O=CC(O)COP(=O)(O)O; experiment: coupled alpha-glycerophosphate dehydrogenase assay, A340; assay type: biochemical, Synechocystis sp. PCC 6803; conditions: 0.1 M TEA pH 7.4, 10 mM EDTA, 0.2 mM NADH, G3P 0-5 mM, G3P to DHAP
Think of 1000 µM as a floor: if Km stands on it or above, it is label 1; beneath it, label 0.

Determine whether measured Km meets or exceeds 1000 µM for SyTPI (Synechocystis sp. PCC 6803 substr. Kazusa; C176S/C42A) (protein, full length, codon-optimised, E. coli BL21(DE3) delta-tpi; His tag cut by PreScission, extra Gly-Pro-His before Met1; homodimer 54 kDa) MRKIIIAGNWKMHKTQAEAQAFLQGFKPLIEDAAESREVVLAVPFTDLSGMSQQLHGGRVRLGAQNVHWEASGAYTGEISAAMLTEIGIHYVVIGHSERRQYFGETDETANLRVLAAQKAGLIPILCVGESKAQRDAGETEQVIVDQVKKGLVNVDQSNLVIAYEPIWAIGTGDTSAATEANRVIGLIREQLTNSQVTIQYGGSVNANNVDEIMAQPEIDGALVGGASLEPQSFARIVNFQP
label 1

Again, but for SyTPI (Synechocystis sp. PCC 6803 substr. Kazusa) (protein, full length, codon-optimised, E. coli BL21(DE3) delta-tpi; His tag cut by PreScission, extra Gly-Pro-His before Met1; homodimer 54 kDa) MRKIIIAGNWKMHKTQAEAQAFLQGFKPLIEDAAESREVVLCVPFTDLSGMSQQLHGGRVRLGAQNVHWEASGAYTGEISAAMLTEIGIHYVVIGHSERRQYFGETDETANLRVLAAQKAGLIPILCVGESKAQRDAGETEQVIVDQVKKGLVNVDQSNLVIAYEPIWAIGTGDTCAATEANRVIGLIREQLTNSQVTIQYGGSVNANNVDEIMAQPEIDGALVGGASLEPQSFARIVNFQP
label 0

Again, but for SyTPI (Synechocystis sp. PCC 6803 substr. Kazusa; C127A/C176S) (protein, full length, codon-optimised, E. coli BL21(DE3) delta-tpi; His tag cut by PreScission, extra Gly-Pro-His before Met1; homodimer 54 kDa) MRKIIIAGNWKMHKTQAEAQAFLQGFKPLIEDAAESREVVLCVPFTDLSGMSQQLHGGRVRLGAQNVHWEASGAYTGEISAAMLTEIGIHYVVIGHSERRQYFGETDETANLRVLAAQKAGLIPILAVGESKAQRDAGETEQVIVDQVKKGLVNVDQSNLVIAYEPIWAIGTGDTSAATEANRVIGLIREQLTNSQVTIQYGGSVNANNVDEIMAQPEIDGALVGGASLEPQSFARIVNFQP
label 1

Again, but for SyTPI (Synechocystis sp. PCC 6803 substr. Kazusa; C127A/C42A) (protein, full length, codon-optimised, E. coli BL21(DE3) delta-tpi; His tag cut by PreScission, extra Gly-Pro-His before Met1; homodimer 54 kDa) MRKIIIAGNWKMHKTQAEAQAFLQGFKPLIEDAAESREVVLAVPFTDLSGMSQQLHGGRVRLGAQNVHWEASGAYTGEISAAMLTEIGIHYVVIGHSERRQYFGETDETANLRVLAAQKAGLIPILAVGESKAQRDAGETEQVIVDQVKKGLVNVDQSNLVIAYEPIWAIGTGDTCAATEANRVIGLIREQLTNSQVTIQYGGSVNANNVDEIMAQPEIDGALVGGASLEPQSFARIVNFQP
label 1

New cases:
Determine whether measured Km meets or exceeds 1000 µM for SyTPI (Synechocystis sp. PCC 6803 substr. Kazusa; C127A) (protein, full length, codon-optimised, E. coli BL21(DE3) delta-tpi; His tag cut by PreScission, extra Gly-Pro-His before Met1; homodimer 54 kDa) MRKIIIAGNWKMHKTQAEAQAFLQGFKPLIEDAAESREVVLCVPFTDLSGMSQQLHGGRVRLGAQNVHWEASGAYTGEISAAMLTEIGIHYVVIGHSERRQYFGETDETANLRVLAAQKAGLIPILAVGESKAQRDAGETEQVIVDQVKKGLVNVDQSNLVIAYEPIWAIGTGDTCAATEANRVIGLIREQLTNSQVTIQYGGSVNANNVDEIMAQPEIDGALVGGASLEPQSFARIVNFQP
label 1
